Target: rat NaP2b (SLC34A2) (Rattus norvegicus)
Construct: host or cells: HEK293
Sequence (Q9JJ09 whole entry): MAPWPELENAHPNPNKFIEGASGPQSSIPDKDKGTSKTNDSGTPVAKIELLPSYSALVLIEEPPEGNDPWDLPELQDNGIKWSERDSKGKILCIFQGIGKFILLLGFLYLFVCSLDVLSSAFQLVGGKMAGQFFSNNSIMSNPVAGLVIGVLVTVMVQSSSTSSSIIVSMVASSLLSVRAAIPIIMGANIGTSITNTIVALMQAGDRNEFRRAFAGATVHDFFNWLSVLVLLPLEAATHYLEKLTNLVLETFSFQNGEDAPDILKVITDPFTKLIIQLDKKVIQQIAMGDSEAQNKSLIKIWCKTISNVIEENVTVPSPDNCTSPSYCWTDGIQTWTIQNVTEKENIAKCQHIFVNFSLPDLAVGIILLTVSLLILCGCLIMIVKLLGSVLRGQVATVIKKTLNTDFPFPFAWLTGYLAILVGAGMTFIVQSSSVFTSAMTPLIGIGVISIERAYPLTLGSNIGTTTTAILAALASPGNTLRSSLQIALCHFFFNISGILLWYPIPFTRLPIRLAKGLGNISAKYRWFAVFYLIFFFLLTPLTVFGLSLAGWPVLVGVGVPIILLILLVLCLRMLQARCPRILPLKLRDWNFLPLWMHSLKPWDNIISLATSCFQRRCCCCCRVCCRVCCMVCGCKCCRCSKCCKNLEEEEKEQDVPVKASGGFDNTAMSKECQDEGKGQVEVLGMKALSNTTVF
Experiment: Inhibition of NaP2b-mediated Pi (33P) uptake in transfected HEK293 cells, rat NaP2b
Assay type: cell-based
Conditions: 33P Pi uptake, 0.1 mM phosphate, value given as pIC50 range
pIC50: −log10 of the molar value.
Recorded pIC50 values for a group of compounds are listed next.

Some compounds with recorded pIC50:
compound	target-or-system	pIC50
O=C(O)Cc1cccc(SCc2cccc(C(=O)Nc3ccc(Cl)cc3-c3cc(C(=O)NCc4cccc(C(F)(F)F)c4)ccn3)c2)c1 [Example 119]	rat NaP2b (SLC34A2) (Rattus norvegicus)	> 6.00
CCN(CC)c1ccc(NC(=O)c2cccc(CCCOCCOCCOCCOCCNS(=O)(=O)c3ccc(CCC(=O)N(CCOC)CCOCCOCCOCCOCCOCCOCCOC)cc3)c2)c(-c2cc(C(=O)NCc3cccc(C(F)(F)F)c3)ccn2)c1 [Example 295]	rat NaP2b (SLC34A2) (Rattus norvegicus)	5.10 to 6.00

# context switch: different compound, same pIC50
Endpoint output: pIC50 of CCN(CC)c1ccc(NC(=O)c2cccc(C(=O)N3CCC[C@H](C(=O)NCCOC)C3)c2)c(-c2cc(C(=O)NCc3cccc(C(F)(F)F)c3)ccn2)c1 [Example 189] . Value?
5.10 to 6.00

----------
Recorded AUC values for a group of compounds are listed next.
Assay: Determination of compound Cmax and AUC after oral gavage (plasma LC-MS/MS)
Format: in vivo, Sprague-Dawley rats
Conditions: Sprague-Dawley, rat, plasma, po, Structure (I) examples, Table 15, actual oral dose 3-15 mg/kg, plasma 0.5-4 h

Some compounds with recorded AUC:
compound	AUC
CN(C)C(=O)C1CCN(CCN(C)C(=O)c2cccc(C(=O)Nc3ccc(N4CCCCC4)cc3-c3cc(C(=O)N[C@H]4CCCc5ccccc54)ccn3)c2)CC1 [Example 218]	< 30 ng·h/mL
CN(CCN1CCNC(=O)C1)C(=O)c1cccc(C(=O)Nc2ccc(N3CCCCC3)cc2-c2cc(C(=O)N[C@H]3CCCc4ccccc43)ccn2)c1 [Example 215]	< 10 ng·h/mL
CCN(CC)CCN(C)C(=O)CCOCCOCCOCCOCCSCc1cccc(C(=O)Nc2ccc(N3CCCCC3)cc2-c2cc(C(=O)NCc3cccc(C(F)(F)F)c3)ccn2)c1 [Example 152]	< 10 ng·h/mL

Endpoint output: AUC of CCN(CC)c1ccc(NC(=O)c2cccc(CSc3cccc(CC(=O)O)c3)c2)c(-c2cc(C(=O)NCc3cccc(C(F)(F)F)c3)ccn2)c1 [Example 143] . Value?
< 10 ng·h/mL

// next record CCN(CC)c1ccc(NC(=O)c2cccc(CSCCOCCOCCOCCOCCC(=O)O)c2)c(-c2cc(C(=O)NCc3cccc(C(F)(F)F)c3)ccn2)c1 [Example 162]
< 10 ng·h/mL

// next record CN(CCN1CCCC[C@H]1C(=O)N(C)CCOCCOCCOCCC(=O)OC(C)(C)C)C(=O)c1cccc(C(=O)Nc2ccc(N3CCCCC3)cc2-c2cc(C(=O)N[C@H]3CCCc4ccccc43)ccn2)c1 [Example 240]
< 10 ng·h/mL

// next record CN(CCN1CCOCC1)C(=O)c1cccc(C(=O)Nc2ccc(OC3CCC3)cc2-c2cc(C(=O)NCc3cccc(C(F)(F)F)c3)ccn2)c1 [Example 26]
< 30 ng·h/mL

// next record CCN(CC)c1ccc(NC(=O)c2cccc(C(=O)N(C)CCN3CCOCC3)c2)c(-c2cc(C(=O)N[C@H]3CCCc4ccccc43)ccn2)c1 [Example 131]
< 50 ng·h/mL

// next record CN(CCOCCOCCOCCC(=O)O)C(=O)Cc1cccc(SCc2cccc(C(=O)Nc3ccc(N4CCCCC4)cc3-c3cc(C(=O)NCc4cccc(C(F)(F)F)c4)ccn3)c2)c1 [Example 138]
< 10 ng·h/mL

// next record O=C(O)CCOCCOCCOCCNC(=O)c1cccc2c1ccn2Cc1cccc(C(=O)Nc2ccc(N3CCCCC3)cc2-c2cc(C(=O)N[C@H]3CCCc4ccccc43)ccn2)c1 [Example 181]
< 30 ng·h/mL

// next record CN(CCOCCOCCOCCC(=O)O)C(=O)c1cccc(C(=O)Nc2ccc(N3CCCCC3)cc2-c2cc(C(=O)N[C@H]3CCCc4ccccc43)ccn2)c1 [Example 249]
< 30 ng·h/mL

// next record CCN(CC)c1ccc(NC(=O)c2cccc(CSCCOCCOCCOCCOCCC(=O)O)c2)c(-c2cc(C(=O)N[C@H]3CCCc4ccccc43)ccn2)c1 [Example 157]
< 10 ng·h/mL

// next record CCN(CC)c1ccc(NC(=O)c2cccc(C(=O)N(C)CCN3CCOCC3)c2)c(-c2cc(C(=O)NCc3cccc(C(F)(F)F)c3)ccn2)c1 [Example 25]
< 30 ng·h/mL

Data credit: patent US20140023611A1
